ASSAY READOUT: melting point

Solved cases below.
>>> recorded_result("CCCCCCCCCCCCCCCCNC(=O)c1cc(OCCSCC(=O)O)c2ccccc2c1O")
"91 to 93 °C"
>>> recorded_result("CC1(C)CCOc2ccc(C3(C)C=CC=CC3C=O)cc21 (centres undefined)")
"85 to 86 °C"
>>> recorded_result("OC1CSC(Oc2cnc(-c3ccc(F)nc3)c(F)c2)C(O)C1O (centres undefined)")
"184 °C"
>>> recorded_result("CCCSc1ncc(CC(Cc2ccccc2)C(=O)O)n1Cc1ccccc1Cl (centres undefined)")
"123 to 127 °C"
>>> recorded_result("Cc1cccc(-c2nc(C3CCN(C)CC3)sc2-c2ccnc(NC(=O)c3ccccc3)c2)c1")
"151 to 152 °C"
>>> recorded_result("Cc1ccc(C(NC(=O)[C@H](CCC(=O)O)NC(=O)c2cc3ccccc3[nH]2)c2ccc(C)cc2)cc1")
"> 260 °C"

Recorded result, `CCc1nc2c(cnn2CC)c(NC2CCOCC2)c1CNC(=O)c1cc(C)cc(C(=O)OC)c1` , melting point: 89 to 93 °C

Recorded result, Cc1ccc(C(=O)C2=C(O)C(=O)N(c3ccc(C)nn3)C2c2ccc(N3CCN(CCN(C)C)CC3)cc2)cc1 (centres undefined) , melting point: 185 °C

Recorded result, `CCOC(=O)N1CCN(C2=Nc3ccccc3Oc3ccc(Cl)cc32)CC1` , melting point: 122 °C
